- Test protocol: Lymphatic transport studies in anesthetized mesenteric lymph duct cannulated rats
- Condition: rat, in vivo, Lymph/serum AUC ratio, oil solution, intraduodenal, lymph duct-cannulated rats; mean ± SD
Property label: Kp

* CCCCCc1cc(O)c2c(c1)OC(C)(CCC=C(C)C)C=C2 (stereo not drawn) [CBC, cannabichromene] | 1260
* CCCCCc1cc(O)c2c(c1)OC(C)(C)c1ccc(C)cc1-2 [CBN, cannabinol] | 976
* C=C(C)[C@@H]1CCC(C)=C[C@H]1c1c(O)cc(CCCCC)cc1O [CBD, cannabidiol] | 699

----------
- Test protocol: Pharmacokinetic studies (oral and intravenous dosing) in jugular vein cannulated rats
- Condition: rat, in vivo, po, F0-inf (absolute oral bioavailability), oil solution, rats; mean ± SD
Property label: bioavailability (%)

- CCCCCc1cc(O)c2c(c1)OC(C)(C)c1ccc(C)cc1-2: 20
- C=C(C)[C@@H]1CCC(C)=C[C@H]1c1c(O)cc(CCCCC)cc1O: 52
- CCCCCc1cc(O)c2c(c1)OC(C)(CCC=C(C)C)C=C2 (stereo not drawn): 34
